Molecular target: T1, EGFR-Fc (R&D Systems), ectodomain of human EGFR as a Fc fusion (human, UniProt P00533 25-645)
T1 construct: extracellular domain; Bought from R&D Systems; also called EGFR-FL-Fc; full length EGFR Fc fusion protein; not shown: Fc of the purchased fusion
Assay: direct binding ELISA, single point; clone captured by anti-His, 50 nM receptor-Fc, anti-human Fc HRP
Measured A450, listed per entry.

binder | A450
867F10 (designed binder, 10Fn3-based clone expressed in E. coli as His6 tagged protein; not shown: His6 tag) VSDVPRDLEVVAATPTSLLISWHNTYKDYRYYRITYGETGGNSPVQEFTVPHMAYNTATISGLKPGVDYTITVYAVTVTMQALLYSIPISINYRT | 2.78 A450
867A05 (designed binder, 10Fn3-based clone expressed in E. coli as His6 tagged protein; not shown: His6 tag) VSDVPRDLEVVAATPTSLLISWYYRKYPGRYYRITYGETGGNSPVQEFTVPDEHTTATISGLKPGVDYTITVYAVTYDSPSQPISINYRT | 1.87 A450
867E02 (designed binder, 10Fn3-based clone expressed in E. coli as His6 tagged protein; not shown: His6 tag) VSDVPRDLEVVAATPTSLLISWIRRAKPGRYYRITYGETGGNSPVQEFTVPDVPWTATISGLKPGVDYTITVYAVTLDGVRRVGYLDHPISINYRT | 1.42 A450
679G06 (designed binder, 10Fn3-based clone expressed in E. coli as His6 tagged protein; not shown: His6 tag) VSDVPRDLEVVAATPTSLLISWYSDYYDNRYYRITYGETGGNSPVQEFTVPRYMMTATISGLKPGVDYTITVYAVTYSYHDPNPMMPISINYRT | 2.1 A450

Where do the numbers come from? From patent US20210040181A1.
